assay_system: pooled human IgG
property_measured: Enzyme Activity Endpoint Assay: Fc (ng/µL)
State the answer as a number, implicitly in ng/µL.

Query: Consider the protein PRT-47 (protein) MANQEIRYSEVTPYHVTSVWTKGVTPPANFTQGEDVFHAPYVANQGWYDINKTFNGGDDLLCGAATAGNMLHWWFDQNKDQIDRYLKEHPEKAKINFNGEQMFDVKEAIDTKNDQTNSKLFEYFKEKAFPYLSTKHLGVFPDLVLDMFINGYRLSLTNHGPTPVKEGSKDPRGGFFDAVFTRGDQSKLLTSRHDFKEKNLKEISDLIKKELTEGKALGLSHTYANVRINHVINLWGADFDSNGNLKAIYVTDSDSNASVGMKKYFVGVNSAGKVAISAKEIKEDNIGAQVLGLFTLSTGQDSWNQTN and give its measured Enzyme Activity Endpoint Assay: Fc.
Reply: 5

Query: Consider the protein PRT-52 (protein) MANQEIRYSEVTPYHVTSVWTKGVTPPANFTQGEDVFHAPYVANQGWYDINKTFNGGDDLLCGAATAGNMLHWWFDQNKEYIDRYLKEHPEKQKINFNGEQMFDVKEAIDTKNSQTDSKLFEYFKEKAFPYLSTKHLGVFPDLVIDMFINGYRLSLTNHGPTPVKEGSKDPRGGFFDAVFTRGDQSKLLTSRHDFKEKNYNEISDLIKKELKEGKALGLSHTYANVRINHVINLWGADFDSNGNLKAIYVTDSDSNASVGMKKYFVGVNSAGKVAISAKEIKEDNIGAQVLGLFTLSTGQDSWNQTN and give its measured Enzyme Activity Endpoint Assay: Fc.
Reply: 12
